Catalogue of self-aminoacylation values
System: biotinyl-Val-oxazolone
test.method.notes: self-aminoacylation, catalytic enhancement (BVO) (fold over background); higher = more active; k-Seq, kA / k0A0; sequences stand for … in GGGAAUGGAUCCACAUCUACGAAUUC…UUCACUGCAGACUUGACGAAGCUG
This sample holds only a part of the variants without activity.

{"columns": ["input.sequence", "self-aminoacylation"],
 "data": [
  ["UUUCACCUAGGUCAUCUGGUG [Fam2.2 aminoacylation ribozyme variant]", 1.86],
  ["AUUACCCUAGUCAUCGAGCGA [Fam2.1 aminoacylation ribozyme variant]", 1.32],
  ["GUUAACCUGGUCAUCGAGUGA [Fam2.1 aminoacylation ribozyme variant]", 3.95],
  ["AUUCACCUAUGUCAUCGGGUU [Fam2.2 aminoacylation ribozyme variant]", 1.61],
  ["AUUACAUUGGUCAUCGAGUGA [Fam2.1 aminoacylation ribozyme variant]", 2.95],
  ["AUUACCGUGGUCAUCCAGUGA [Fam2.1 aminoacylation ribozyme variant]", 3.32],
  ["CCAUUCUUCAAGCAAUCGGUC [Fam1B.1 aminoacylation ribozyme variant]", 0.976],
  ["CUCCUUCAAGCAAUCGGUCUG [Fam1A.1 aminoacylation ribozyme variant]", 1.09],
  ["CUACUUCAAAAAAUCGGCCUG [Fam1A.1 aminoacylation ribozyme variant]", 1.56],
  ["CAACCUCAAACAAUCGGUCUG [Fam1A.1 aminoacylation ribozyme variant]", 1.31],
  ["CUACUUCAAACAAUCUGUUUG [Fam1A.1 aminoacylation ribozyme variant]", 0.838],
  ["CCACACUUCAAGCGAUCGGUU [Fam1B.1 aminoacylation ribozyme variant]", 2.08],
  ["AUUAACCUAGGUCAUCGCGUG [Fam2.2 aminoacylation ribozyme variant]", 4.66],
  ["AUUACCCCGGUCAUCGUGUGA [Fam2.1 aminoacylation ribozyme variant]", 1.74],
  ["AUUCACUUAGGACAUCGGGUG [Fam2.2 aminoacylation ribozyme variant]", 2.33],
  ["CCACACUUUAAGCAAUCGGCC [Fam1B.1 aminoacylation ribozyme variant]", 1.74],
  ["CCAUUUCAAACAAUCGGUCUG [Fam1A.1 aminoacylation ribozyme variant]", 1.04],
  ["AUUCACCUAGGUCUUCGGGUA [Fam2.2 aminoacylation ribozyme variant]", 3.6],
  ["GUCCACCUAGGUCAUCGGGUG [Fam2.2 aminoacylation ribozyme variant]", 4.67],
  ["CUACUUCAAUCAACCGGUCUG [Fam1A.1 aminoacylation ribozyme variant]", 0.806],
  ["AUUCACGUAGGCCAUCGGGUG [Fam2.2 aminoacylation ribozyme variant]", 5.3],
  ["CUGCUUCAACCAAUCGGUCUG [Fam1A.1 aminoacylation ribozyme variant]", 1.38],
  ["AAGUUUGCUUAUACUCGCAAG [Fam3.1 aminoacylation ribozyme variant]", 0.814],
  ["AUUCACCUAUGUCAGCGGGUG [Fam2.2 aminoacylation ribozyme variant]", 2.33],
  ["AUACUUCAAACAAUCGAUCUG [Fam1A.1 aminoacylation ribozyme variant]", 0.59],
  ["AAGUGUGCUAAGAGUCGCAAG [Fam3.1 aminoacylation ribozyme variant]", 0.87],
  ["AUCACCCCGGUCAUCGAGUGA [Fam2.1 aminoacylation ribozyme variant]", 4.47],
  ["AUUCUCCUAGCUCAUCGGGUG [Fam2.2 aminoacylation ribozyme variant]", 3.75],
  ["AUUACCCUGGUUCUCGAGUGA [Fam2.1 aminoacylation ribozyme variant]", 2.2],
  ["AUUACCCUGAUCAUCGAGUUA [Fam2.1 aminoacylation ribozyme variant]", 1.11],
  ["AUUCAUGUAGGUCAUCGGGUG [Fam2.2 aminoacylation ribozyme variant]", 3.43],
  ["AUUCACCUAGGUCAUCGGCUA [Fam2.2 aminoacylation ribozyme variant]", 2.62],
  ["AUUACCCUGGUCCUCUAGUGA [Fam2.1 aminoacylation ribozyme variant]", 5.33],
  ["AAGUUUACUACUAGUCGCAAG [Fam3.1 aminoacylation ribozyme variant]", 1.6],
  ["AUUAACCUAGGUCAUCGGGUG [Fam2.2 aminoacylation ribozyme variant]", 15.8]
]}

* * *

Catalogue of self-aminoacylation values
System: biotinyl-Trp-oxazolone
test.method.notes: self-aminoacylation, catalytic enhancement (BWO) (fold over background); higher = more active; k-Seq, kA / k0A0; sequences stand for … in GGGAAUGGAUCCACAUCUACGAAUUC…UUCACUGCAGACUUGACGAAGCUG
This sample holds only a part of the variants without activity.

{"columns": ["input.sequence", "tested.system", "self-aminoacylation"],
 "data": [
  ["AUUCACCUAGGUCAUCGGCCG [Fam2.2 aminoacylation ribozyme variant]", "biotinyl-Trp-oxazolone", 5.29],
  ["CCACGCUUCAAGCAAUGGGUC [Fam1B.1 aminoacylation ribozyme variant]", "biotinyl-Trp-oxazolone", 0.419],
  ["CUACUUUAAACAAUCGGGCUG [Fam1A.1 aminoacylation ribozyme variant]", "biotinyl-Trp-oxazolone", 0.746],
  ["AUUCACCUUGGUCGUCGGGUG [Fam2.2 aminoacylation ribozyme variant]", "biotinyl-Trp-oxazolone", 2.01],
  ["AAGUUUGCUGAUAAUCGCAAG [Fam3.1 aminoacylation ribozyme variant]", "biotinyl-Trp-oxazolone", 0.682],
  ["CUACUUCAAACAAUUGGUUUG [Fam1A.1 aminoacylation ribozyme variant]", "biotinyl-Trp-oxazolone", 0.708],
  ["AUUCACCUAAGUCAUCGGCUG [Fam2.2 aminoacylation ribozyme variant]", "biotinyl-Trp-oxazolone", 0.999],
  ["GUUACCCUGGUCAUCGAGUGA [Fam2.1 aminoacylation ribozyme variant]", "biotinyl-Trp-oxazolone", 101],
  ["AAGUUUCCUAAUAGUCACAAG [Fam3.1 aminoacylation ribozyme variant]", "biotinyl-Trp-oxazolone", 1.23]
]}

* * *

System: biotinyl-Met-oxazolone
test.method.notes: self-aminoacylation, catalytic enhancement (BMO) (fold over background); higher = more active; k-Seq, kA / k0A0; sequences stand for … in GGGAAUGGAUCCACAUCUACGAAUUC…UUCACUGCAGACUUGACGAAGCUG
Fewer inactive variants are shown than the library holds.
Catalogue of self-aminoacylation values

{"columns": ["input.sequence", "self-aminoacylation"],
 "data": [
  ["AUUACCCGGUUCAUCGAGUGA [Fam2.1 aminoacylation ribozyme variant]", 6.36],
  ["AUUCACCUAGGGCGUCGGGUG [Fam2.2 aminoacylation ribozyme variant]", 2.21],
  ["AUUCACCUAGGUAUUCGGGUG [Fam2.2 aminoacylation ribozyme variant]", 3.34],
  ["CUACUUCAAACAAUCUGUCUU [Fam1A.1 aminoacylation ribozyme variant]", 0.559],
  ["CCACAAUUCAAGCCAUCGGUC [Fam1B.1 aminoacylation ribozyme variant]", 1.47],
  ["CUACUUCGGACAAUCGGUCUG [Fam1A.1 aminoacylation ribozyme variant]", 0.928],
  ["AUUUACCUAGGUCAUCCGGUG [Fam2.2 aminoacylation ribozyme variant]", 4.7],
  ["GUUCACCUAAGUCAUCGGGUG [Fam2.2 aminoacylation ribozyme variant]", 7.53],
  ["AUUCCCCUACGUCAUCGGGUG [Fam2.2 aminoacylation ribozyme variant]", 16],
  ["CUACUCCAAACAAUCGGUGUG [Fam1A.1 aminoacylation ribozyme variant]", 0.945],
  ["CGACUUCAAACAAUCUGUCUG [Fam1A.1 aminoacylation ribozyme variant]", 0.815],
  ["CUACUUCAAAUAAUCGAUCUG [Fam1A.1 aminoacylation ribozyme variant]", 0.534],
  ["CCACACUUCAUGCAAGCGGUC [Fam1B.1 aminoacylation ribozyme variant]", 0.854],
  ["CCACACGUGAAGCAAUCGGUC [Fam1B.1 aminoacylation ribozyme variant]", 1.32],
  ["CCACUCUUCAAGCAAUGGGUC [Fam1B.1 aminoacylation ribozyme variant]", 0.953],
  ["CCACAAUUCAGGCAAUCGGUC [Fam1B.1 aminoacylation ribozyme variant]", 1.37],
  ["CCACCCUUGAAGCAAUCGGUC [Fam1B.1 aminoacylation ribozyme variant]", 0.972],
  ["CCACACAUCAAGCAAUCGGCC [Fam1B.1 aminoacylation ribozyme variant]", 1.65],
  ["CUUGCCCUGGUCAUCGAGUGA [Fam2.1 aminoacylation ribozyme variant]", 15.4],
  ["AAGUCUGCUAAUCGUCGCAAG [Fam3.1 aminoacylation ribozyme variant]", 1.36],
  ["AGUCACCUAGGUCAUCGGAUG [Fam2.2 aminoacylation ribozyme variant]", 1.21],
  ["AUUCCCCUCGGUCAUCGGGUG [Fam2.2 aminoacylation ribozyme variant]", 21.1],
  ["AAGUAUGCUAAUAGGCGCAAG [Fam3.1 aminoacylation ribozyme variant]", 0.748],
  ["AUUAACCUGAUCAUCGAGUGA [Fam2.1 aminoacylation ribozyme variant]", 9.97],
  ["AAGUUUGCUAAUUGGCGCAAG [Fam3.1 aminoacylation ribozyme variant]", 0.964],
  ["AUUCACUUAGGUCUUCGGGUG [Fam2.2 aminoacylation ribozyme variant]", 3.58],
  ["AUUACCCUGGACAUCGAGUUA [Fam2.1 aminoacylation ribozyme variant]", 0.682],
  ["GUUCCCCUGGUCAUCGAGUGA [Fam2.1 aminoacylation ribozyme variant]", 5.84],
  ["AUUACCCUCGUCAUCGGGUGA [Fam2.1 aminoacylation ribozyme variant]", 3.84],
  ["AUUACCCUUGUCAUCGAGCGA [Fam2.1 aminoacylation ribozyme variant]", 1.12],
  ["ACACACUUCAAGCAAUCGGAC [Fam1B.1 aminoacylation ribozyme variant]", 0.97],
  ["AUUCACCUAGCUCAUCCGGUG [Fam2.2 aminoacylation ribozyme variant]", 3.18],
  ["AUUCACCUAGGUAAUCGGUUG [Fam2.2 aminoacylation ribozyme variant]", 0.735],
  ["CUACUUCCAACAAUGGGUCUG [Fam1A.1 aminoacylation ribozyme variant]", 0.932],
  ["CUAAUUCAAACAAUCGGGCUG [Fam1A.1 aminoacylation ribozyme variant]", 0.87]
]}
